# measurement_target: Superoxide dismutase 1/2 (Homo sapiens) (UniProt P00441+P04179)
# Sequence (P00441 whole entry, looked up): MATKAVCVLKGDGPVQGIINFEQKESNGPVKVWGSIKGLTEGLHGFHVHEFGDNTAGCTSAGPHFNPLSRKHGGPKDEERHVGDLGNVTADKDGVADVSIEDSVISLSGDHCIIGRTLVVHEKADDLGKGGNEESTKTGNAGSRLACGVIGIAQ
# Sequence (P04179 whole entry, looked up): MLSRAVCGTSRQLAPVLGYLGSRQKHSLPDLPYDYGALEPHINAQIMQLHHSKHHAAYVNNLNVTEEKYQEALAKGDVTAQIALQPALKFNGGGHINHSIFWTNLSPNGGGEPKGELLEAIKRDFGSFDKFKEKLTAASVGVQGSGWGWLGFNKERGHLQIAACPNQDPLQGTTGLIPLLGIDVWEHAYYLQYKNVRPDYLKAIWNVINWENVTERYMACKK
# test_details: Inhibition of SOD1/SOD2 in human DLD1 cells at 100 uM using xanthine as substrate pretreated for 24 hrs followed by substrate addition measured after 5 mins by NBT dye based spectrophotometric method
# Format: cell-based
Activity calls are given as the source filed them. No cut-off for these calls is given here.
Write down one outcome, taken from active, inactive

Take a look at these entries with their results.
molecular_string: COc1cc(/C=C/C(=O)C(=Cc2ccc(OC)c(OC)c2)C(=O)/C=C/c2ccc(O)c(OC)c2)ccc1O
answer_label: active

molecular_string: CCOc1cc(/C=C/C(=O)C(=Cc2ccc(OC)c(OC)c2)C(=O)/C=C/c2ccc(O)c(OCC)c2)ccc1O
answer_label: active

molecular_string: CCOc1cc(C=C(C(=O)/C=C/c2ccc(O)c(OC)c2)C(=O)/C=C/c2ccc(O)c(OC)c2)ccc1O
answer_label: active

Outcome? "CCOc1cc(/C=C/C(=O)C(=Cc2ccccc2)C(=O)/C=C/c2ccc(O)c(OCC)c2)ccc1O"
active

What call does the record list for "COc1cc(C=C(C(=O)/C=C/c2ccc(O)c(OC)c2)C(=O)/C=C/c2ccc(O)c(OC)c2)ccc1O" ?
active

For "COc1cc(/C=C/C(=O)C(=Cc2ccccc2)C(=O)/C=C/c2ccc(O)c(OC)c2)ccc1O" , what call appears in the results of this test?
inactive

Called result for "COc1cc(/C=C/C(=O)C(=Cc2ccc(O)c(O)c2)C(=O)/C=C/c2ccc(O)c(OC)c2)ccc1O"
active

Returns: the outcome recorded for "CCOc1cc(/C=C/C(=O)C(=Cc2ccc(O)c(O)c2)C(=O)/C=C/c2ccc(O)c(OCC)c2)ccc1O" in this assay.
active
